Assay: Human pregnane X receptor (PXR) small molecule agonists, qHTS cell viability counter screen (AID 1346977); also: nearly all actives have a fitted effect of over 50% in size
Settings: PXR-Luc HepG2 viability, CellTiter-Fluor, 24 h; series mostly up to 92.4 µM
Results filed as inconclusive are left out. Calls of active or inactive are those of the source. Calls follow the shape of the dose curve; as a rule, active = well fitted cell-killing curve with a large enough effect in the repeat runs; inconclusive = weak or mixed curves, or effect the other way; inactive = flat fitted curve, though single readings scatter.
Your answer must be one of the following: yes (1) for active, no (0) for inactive

Reference set, count: 3
# COMPOUND, LABEL CLASS
data = [
    ("CCCCCCCC/C=C/CCCOC(C)=O", "no (0)"),
    ("CCN(CC)CCCN(c1ccccc1)C1Cc2ccccc2C1", "yes (1)"),
    ("Brc1ccccn1", "no (0)"),
]

Request: # lookup: test call for `CCOC(=O)[C@@](C)(N)Cc1ccc(O)c(O)c1`
Result: no (0)

Request: Answer briefly: the call reported for `CC=O` in this assay.
Result: yes (1)

Request: Field: outcome | Entry: `CCC1CCCCC1`
Result: no (0)

Request: # fetch the recorded call for `Cc1cc(C)c(C=O)c(C)c1` here
Result: no (0)

Request: Given CCN(CC)CCOc1ccc(C(O)(Cc2ccc(Cl)cc2)c2ccc(C)cc2)cc1 (stereo not given) , state the outcome it received in this test.
Result: yes (1)

Request: Look up the recorded call for `Cc1cn[nH]c1` in this test.
Result: no (0)

Request: Look up the recorded call for `C[C@]12CC[C@H]3C(=CCc4cc(O)ccc43)[C@@H]1CCC2=O` in this test.
Result: no (0)
